Recorded pIC50, one value per entry.
# system_under_test: His-PKC-theta (Homo sapiens, UniProt Q04759)
# Construct: His; purchased Invitrogen
# Sequence (Q04759 whole entry): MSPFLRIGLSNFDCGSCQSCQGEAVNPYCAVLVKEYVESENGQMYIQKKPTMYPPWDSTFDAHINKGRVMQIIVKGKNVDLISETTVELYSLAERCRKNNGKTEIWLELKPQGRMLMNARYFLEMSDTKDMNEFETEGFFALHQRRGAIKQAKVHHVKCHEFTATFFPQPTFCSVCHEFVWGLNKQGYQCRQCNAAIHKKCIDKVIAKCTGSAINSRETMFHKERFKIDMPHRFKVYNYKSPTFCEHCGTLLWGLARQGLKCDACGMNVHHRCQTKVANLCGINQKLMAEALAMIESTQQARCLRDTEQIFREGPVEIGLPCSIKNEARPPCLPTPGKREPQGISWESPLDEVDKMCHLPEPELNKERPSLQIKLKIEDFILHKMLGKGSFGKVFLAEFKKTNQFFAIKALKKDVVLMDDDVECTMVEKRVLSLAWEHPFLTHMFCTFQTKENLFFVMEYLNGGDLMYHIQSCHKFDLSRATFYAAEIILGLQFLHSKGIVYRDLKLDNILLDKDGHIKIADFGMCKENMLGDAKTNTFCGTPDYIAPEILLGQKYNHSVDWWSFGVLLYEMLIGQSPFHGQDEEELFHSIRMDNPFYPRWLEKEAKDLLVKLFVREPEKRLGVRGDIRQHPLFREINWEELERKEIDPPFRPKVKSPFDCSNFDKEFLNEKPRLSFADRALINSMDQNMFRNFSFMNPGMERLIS
# assay_notes: PKC-theta Assay (384-well time resolved fluorescence, IMAP TR-FRET)
# Assay type: biochemical
# measurement_setup: read-out: Act. Level (IC50 in the PKC-theta Assay)
pIC50: −log10 of the molar value.
test_readout: pIC50

INSERT INTO assay_data (molecule, result) VALUES
  ('CC1(C)[C@@H](CO)C[C@H]1Nc1nc(NCc2c[n+]([O-])ccc2C(F)(F)F)ncc1C#N', '> 7.00'),
  ('CC1(C)[C@@H](CO)C[C@@H]1Nc1nc(NCc2cnccc2C(F)(F)F)ncc1C(F)(F)F', '6.10 to 7.00'),
  ('Cc1cccnc1CCNc1ncc(C#N)c(NC2C[C@H](O)C2(C)C)n1 (some centres unmarked)', '5.00 to 5.70'),
  ('Cc1cccc(CCNc2ncc(C#N)c(N[C@@H]3C[C@H](O)C3(C)C)n2)n1', '5.00 to 5.70'),
  ('CC(F)(F)COc1ncncc1CNc1ncc(C#N)c(N[C@H]2CCC[C@@H](O)C2(C)C)n1', '> 7.00'),
  ('Cc1cc2ccccc2n1CCNc1ncc(C#N)c(N[C@@H]2CC[C@H](O)C(C)(C)C2)n1', '6.10 to 7.00'),
  ('CC1(C)C[C@H](Nc2nc(NCCc3cc4ccccc4[nH]3)ncc2C#N)CC[C@@H]1O', '5.70 to 6.10'),
  ('CC1(C)[C@@H](O)C[C@H]1Nc1nc(NCc2cncnc2C(F)(F)F)ncc1C#N', '> 7.00'),
  ('CC1(C)C[C@H](Nc2nc(NCCc3c[nH]c4ncccc34)ncc2C#N)CC[C@@H]1O', '6.10 to 7.00'),
  ('Cc1cccc(CCNc2ncc(C#N)c(N[C@@H]3CC[C@H](O)C(C)(C)C3)n2)n1', '5.70 to 6.10'),
  ('CC1(C)[C@@H](CO)C[C@H]1Nc1nc(NCc2cnccc2C(F)(F)F)ncc1C#N', '> 7.00'),
  ('CC1(C)C[C@H](Nc2nc(NCCc3cncc(Cl)c3)ncc2C#N)CC[C@@H]1O', '6.10 to 7.00'),
  ('CC1(C)[C@@H](O)C[C@H]1Nc1nc(NCCc2c[nH]c3ccccc23)ncc1C#N', '> 7.00'),
  ('Cc1cnccc1CCNc1ncc(C#N)c(N[C@@H]2C[C@H](O)C2(C)C)n1', '5.70 to 6.10'),
  ('Cc1ncccc1CCNc1ncc(C#N)c(N[C@H]2CC[C@@H](C(N)=O)CC2)n1', '6.10 to 7.00'),
  ('CC1(C)[C@@H](C(N)=O)C[C@H]1Nc1nc(NCCC2C(=O)Nc3ccccc32)ncc1C#N (some centres unmarked)', '> 7.00'),
  ('CC1(C)C[C@H](Nc2nc(NCCc3cn[nH]c3)ncc2C#N)CC[C@@H]1O', '6.10 to 7.00');
